# system tested: androgen receptor (rat ventral prostate cytosol) (Rattus norvegicus, UniProt P15207)
# Construct: from tissue; host or cells: ventral prostate cytosol of castrated male Sprague Dawley or Wistar rats
# Sequence (P15207 whole entry S389L): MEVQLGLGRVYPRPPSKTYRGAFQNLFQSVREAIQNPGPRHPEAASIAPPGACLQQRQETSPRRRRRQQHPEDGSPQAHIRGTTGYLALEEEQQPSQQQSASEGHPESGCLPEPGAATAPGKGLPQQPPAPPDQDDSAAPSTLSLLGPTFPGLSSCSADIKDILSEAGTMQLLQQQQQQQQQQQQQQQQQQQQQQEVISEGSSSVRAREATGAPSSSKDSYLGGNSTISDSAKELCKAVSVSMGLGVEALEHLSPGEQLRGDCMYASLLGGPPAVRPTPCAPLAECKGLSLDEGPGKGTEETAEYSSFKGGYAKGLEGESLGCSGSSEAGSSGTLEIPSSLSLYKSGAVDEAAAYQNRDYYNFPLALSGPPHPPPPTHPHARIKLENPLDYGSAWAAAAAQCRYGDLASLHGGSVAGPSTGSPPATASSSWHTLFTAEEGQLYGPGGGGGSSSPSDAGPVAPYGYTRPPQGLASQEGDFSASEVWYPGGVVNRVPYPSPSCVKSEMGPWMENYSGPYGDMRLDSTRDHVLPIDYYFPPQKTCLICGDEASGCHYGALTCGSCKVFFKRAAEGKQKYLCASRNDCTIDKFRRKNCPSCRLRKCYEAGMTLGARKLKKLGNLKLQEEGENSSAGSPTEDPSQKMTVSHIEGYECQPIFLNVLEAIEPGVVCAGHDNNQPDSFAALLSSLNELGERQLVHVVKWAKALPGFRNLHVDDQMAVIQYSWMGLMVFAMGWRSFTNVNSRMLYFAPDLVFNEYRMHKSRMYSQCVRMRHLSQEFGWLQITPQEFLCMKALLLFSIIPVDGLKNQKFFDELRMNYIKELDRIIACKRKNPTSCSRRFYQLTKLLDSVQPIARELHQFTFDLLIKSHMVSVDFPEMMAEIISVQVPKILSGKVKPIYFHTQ
# protocol details: Androgen Receptor Binding Using Rat Ventral Prostate Cytosol
# details: Concentration 3000 nM
reported metric: inhibition at 3 µM (%)

{"columns": ["molecule", "measured"],
 "data": [
  ["CC(C)SCC(C)(O)c1cc2cc([N+](=O)[O-])c(C(F)(F)F)cc2[nH]1 (centres unmarked) [Compound 164]", 52],
  ["CC(O)(CCS(C)(=O)=O)c1cc2cc([N+](=O)[O-])c(C(F)(F)F)cc2[nH]1 (centres unmarked) [Compound 49]", 48],
  ["CCSCC(C)(O)c1cc2cc([N+](=O)[O-])c(C(F)(F)F)cc2n1S(C)(=O)=O (centres unmarked) [Compound 141]", -4.5],
  ["CCSCC(C)(O)c1cc2cc(Cl)c(C(F)(F)F)cc2[nH]1 (centres unmarked) [Compound 152]", 97],
  ["CCS(=O)(=O)C[C@](C)(O)c1cc2cc([N+](=O)[O-])c(C(F)(F)F)cc2[nH]1 [Compound 156]", 66],
  ["CC(O)(CSC1CCCC1)c1cc2cc([N+](=O)[O-])c(C(F)(F)F)cc2[nH]1 (centres unmarked) [Compound 173]", 32],
  ["CC[S+]([O-])C[C@](C)(O)c1cc2cc([N+](=O)[O-])c(C(F)(F)F)cc2[nH]1 (stereo in doubt) [Compound 155]", -6.1],
  ["CC(O)(CSCC(F)(F)F)c1cc2cc([N+](=O)[O-])c(C(F)(F)F)cc2[nH]1 (centres unmarked) [Compound 171]", 18]
]}
